assayed-system: TLR7/NFKb HEK cells (Homo sapiens)
measurement-protocol: HEK Cell Assay (TLR7/NFKb reporter, Steady-Glo luciferase readout)
experimental-conditions: 30 min compound preincubation, then R*48 agonist for 5 hours, read-out: Potency
Description: Example 142: HEK Cell Assay Into 384 CulturePlates (Corning 3707) was placed 5000 c/w of TLR7/NFKb HEK cells in 30 uL DMEM without Phenil red (gibco #31053) and 10% i.a. FCS and 2 mM L-ZGLutamin. The cells were incubated for 24 h at 37° C., 10% carbon dioxide and 90% relative humidity. […] The assay plate was allowed to sit for 30 min at room temperature and then the plate was read on EnVision.
pIC50: −log10 of the molar value. Counter-ions that a name gives are not always drawn.
What pIC50 was measured for each of the following?

Quick batch: pIC50 for everything below.
1. CCC(C)CC(=O)N[C@@H]1C[C@H](C)CN(c2ccc(C#N)c3nccnc23)C1 (single isomer, unassigned) [Compound 150]
2. C[C@H]1C[C@@H](NC(=O)CC2CN(C)C2)CN(c2ccc(C(F)(F)F)c3nccnc23)C1 [Compound 363]
3. C[C@H]1C[C@@H](N)CN(c2ccc(O)c3ncccc23)C1 [Compound 200, hydrochloride]
4. C[C@H]1C[C@@H](NC(=O)CC2CC2(F)F)CN(c2ccc(C(F)F)c3ncccc23)C1 (stereo partly shown) [Compound 310]
5. C[C@H]1C[C@@H](N)CN(c2ccc(C#N)c3ncncc23)C1 [Compound 74]
6. C[C@H]1C[C@@H](NC(=O)C(N)C(F)(F)F)CN(c2ccnc3nccnc23)C1 (single isomer, unassigned) [Compound 114, hydrochloride]
7. N#Cc1ccc(N2CC(N)CC(F)(F)C2)c2nccnc12 (single isomer, unassigned) [Compound 76]

1. > 6.00
2. > 6.00
3. > 6.00
4. > 6.00
5. > 6.00
6. < 5.00
7. 5.00 to 6.00

###

assayed-system: TLR7/NFKb HEK cells (Homo sapiens, UniProt Q9NYK1)
Construct: expressed in transfected cells; host or cells: HEK cells (TLR7/NFKb reporter line)
Sequence (Q9NYK1 27-1049): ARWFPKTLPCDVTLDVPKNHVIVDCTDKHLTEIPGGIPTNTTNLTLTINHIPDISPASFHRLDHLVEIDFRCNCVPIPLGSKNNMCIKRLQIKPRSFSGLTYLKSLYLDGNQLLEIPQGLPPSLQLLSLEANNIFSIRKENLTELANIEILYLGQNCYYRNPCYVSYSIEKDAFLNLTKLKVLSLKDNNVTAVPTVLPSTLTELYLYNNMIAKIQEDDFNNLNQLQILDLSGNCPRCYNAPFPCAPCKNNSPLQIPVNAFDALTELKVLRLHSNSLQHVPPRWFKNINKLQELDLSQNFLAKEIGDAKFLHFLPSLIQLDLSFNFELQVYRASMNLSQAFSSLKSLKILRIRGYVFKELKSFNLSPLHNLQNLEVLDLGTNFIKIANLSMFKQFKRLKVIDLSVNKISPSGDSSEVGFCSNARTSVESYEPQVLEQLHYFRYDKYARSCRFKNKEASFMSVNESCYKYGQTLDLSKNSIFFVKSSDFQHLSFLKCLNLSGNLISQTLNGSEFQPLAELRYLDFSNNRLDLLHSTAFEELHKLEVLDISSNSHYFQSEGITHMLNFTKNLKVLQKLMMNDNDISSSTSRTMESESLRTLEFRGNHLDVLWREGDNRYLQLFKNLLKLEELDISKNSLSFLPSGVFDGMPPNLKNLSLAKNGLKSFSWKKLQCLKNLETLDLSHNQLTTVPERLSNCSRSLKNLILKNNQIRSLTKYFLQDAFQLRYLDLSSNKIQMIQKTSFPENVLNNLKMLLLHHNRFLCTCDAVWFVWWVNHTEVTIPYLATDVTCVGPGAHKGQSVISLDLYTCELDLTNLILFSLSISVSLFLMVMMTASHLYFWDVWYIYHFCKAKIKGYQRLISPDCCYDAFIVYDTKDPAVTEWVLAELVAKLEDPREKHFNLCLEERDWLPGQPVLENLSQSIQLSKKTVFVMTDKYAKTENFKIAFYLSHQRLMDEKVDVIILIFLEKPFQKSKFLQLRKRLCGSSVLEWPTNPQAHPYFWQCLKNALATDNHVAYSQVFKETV
measurement-protocol: HEK Cell Assay (TLR7/NFKb reporter, Steady-Glo luciferase readout)
Format: cell-based
experimental-conditions: 30 min compound preincubation, then R*48 agonist for 5 hours, read-out: Potency
recorded-endpoint: IC50

// below: answered compounds
C[C@H]1C[C@@H](NC(=O)CN2CCCN(C)CC2)CN(c2ccc(C(F)F)c3nccnc23)C1 ... < 1 µM
COc1ccc(N2C[C@@H](C)C[C@@H](NC(=O)C(O)C(C)C)C2)c2nccnc12 (stereo in doubt) ... 1 to 10 µM
CC(C)[C@@H](N)C(=O)N[C@@H]1C[C@H](C)CN(c2ccc(C#N)c3nccnc23)C1 ... < 1 µM
N#Cc1ccc(N2CC(NC(=O)C(N)C3CC3)CC(C(F)(F)F)C2)c2cccnc12 (mixture of isomers) [Compound 486] ... < 1 µM

Hey, quick one: what's IC50 for each of these?
1. CCN(CC)CCNCC1CCN(c2ccnc3ccc(C)cc23)CC1
2. CC(O)C(=O)N[C@@H]1C[C@H](C)CN(c2ccc(C#N)c3nccnc23)C1 (stereo partly drawn)
3. CCNC(=O)C1CCN(C[C@H]2CN(c3ccnc4nccnc34)C[C@@H](C)O2)CC1
4. C[C@H]1C[C@@H](NC2CCN(C)C2=O)CN(c2ccc(C#N)c3nccnc23)C1 (single isomer, unassigned) [Compound 124]
5. CC(C)C(C)C(=O)N[C@@H]1C[C@H](C)CN(c2ccc(C#N)c3nccnc23)C1 (stereo partly drawn)
6. C[C@H]1C[C@@H](NC(=O)CN(C)C)CN(c2ccc(Cl)c3ncccc23)C1

["1 to 10 µM", "< 1 µM", "1 to 10 µM", "< 1 µM", "< 1 µM", "< 1 µM"]
